SYSTEM TESTED: CaBem1-D1
ASSAY NAME: SPOT peptide array binding signal intensity (averaged, normalized) (arbitrary units (background-subtracted, floor 0; scale differs between SH3 domains)); higher = stronger binding of the SH3 domain to the peptide
MEASUREMENT TYPE: SPOT peptide array binding signal intensity

{"BINDER": "SPLGAPPPPPHKDHL", "MEASURED": "≤ 0"}
{"BINDER": "TEVPIPRRPPPPQAA", "MEASURED": "≤ 0"}
{"BINDER": "KRNRLKILLPFLEQS", "MEASURED": "≤ 0"}

Endpoint output: SPOT peptide array binding signal intensity of LLRRTIPKRPFYHVL . Value?
8.5

Quick one: SPOT peptide array binding signal intensity for SGVRLPAPPPPPRRG ?
544

Quick one: SPOT peptide array binding signal intensity of KRKRFNLLLPKPYLT ?
31

Given the binder RKNRAPPQRPRFNRD , what is its reported SPOT peptide array binding signal intensity?
65.5

Name the recorded SPOT peptide array binding signal intensity for LEFRAILFIPKRAPF .
5

I am curious: what SPOT peptide array binding signal intensity value has been reported for ISRRRLPVIMHRLKM ?
102

Entry under review: NNQRRKPLLLNIGDH . Reported SPOT peptide array binding signal intensity?
≤ 0

// query SPOT peptide array binding signal intensity value for entry FLIKFTPKFPQSIDH
103

Please give the measured SPOT peptide array binding signal intensity for this binder: SSTPTTPERPKRKSG
8

May I ask what SPOT peptide array binding signal intensity has been recorded for FIRKRAPTPPAPSRS ?
813

GET /values?readout=SPOT peptide array binding signal intensity&item= GAGERPRLVPRPINV
68.5

Which SPOT peptide array binding signal intensity reading was recorded for the binder NNNKMRPHLPPLSSG ?
264

Give the measured SPOT peptide array binding signal intensity of TPRLSLPRLPNKHHW .
≤ 0

Fill in the blank: the reported SPOT peptide array binding signal intensity of HGKRRAPLLLAKLDV is ____.
44

// query SPOT peptide array binding signal intensity value for entry QGYPRQPQRPQRYHP
15

Look up SPOT peptide array binding signal intensity for this binder: RKQRSIPLSPIVPES
13

// lookup SPOT peptide array binding signal intensity for ALFRLSFFFPLDPAY
141
